measurementLabel: HepSE_Combined Scores
The answer should be written as a number, with no unit following it.

Q) Form: Entry = O=C(c1ccccc1)c1ccc2n1CCC2C(=O)O (stereo not drawn) [KETOROLAC] | System = Hepatotoxicity | HepSE_Combined Scores = ____
A) 3

Q) Form: Entry = N#Cc1cc(NC(=O)C(=O)O)c(Cl)c(NC(=O)C(=O)O)c1 [LODOXAMIDE] | System = Hepatotoxicity | HepSE_Combined Scores = ____
A) 0

Q) Form: Entry = CCCSc1ccc2nc(NC(=O)OC)[nH]c2c1 [ALBENDAZOLE] | System = Hepatotoxicity | HepSE_Combined Scores = ____
A) 3

Q) Form: Entry = COc1ccc(Cl)cc1C(=O)NCCc1ccc(S(=O)(=O)NC(=O)NC2CCCCC2)cc1 [GLYBURIDE] | System = Hepatotoxicity | HepSE_Combined Scores = ____
A) 3

Q) Form: Entry = CCS(=O)(=O)CCn1c([N+](=O)[O-])cnc1C [TINIDAZOLE] | System = Hepatotoxicity | HepSE_Combined Scores = ____
A) 0

Q) Form: Entry = C[C@H](CS)C(=O)N1CCC[C@H]1C(=O)O [CAPTOPRIL] | System = Hepatotoxicity | HepSE_Combined Scores = ____
A) 2

Q) Form: Entry = CN1CCC(=C2c3ccccc3C=Cc3ccccc32)CC1 [CYPROHEPTADINE] | System = Hepatotoxicity | HepSE_Combined Scores = ____
A) 3

Q) Form: Entry = CCC1(c2ccc(N)cc2)CCC(=O)NC1=O (stereo not drawn) [AMINOGLUTETHIMIDE] | System = Hepatotoxicity | HepSE_Combined Scores = ____
A) 0

Q) Form: Entry = CC(C)[C@@H]1NC(=O)[C@H](CCCCN)NC(=O)[C@@H](Cc2c[nH]c3ccccc23)NC(=O)[C@H](Cc2ccc(O)cc2)NC(=O)[C@@H](NC(=O)[C@H](N)Cc2ccc3ccccc3c2)CSSC[C@@H](C(=O)N[C@H](C(N)=O)[C@@H](C)O)NC1=O [LANREOTIDE] | System = Hepatotoxicity | HepSE_Combined Scores = ____
A) 4

Q) Form: Entry = CCN(CC)CCOC(=O)c1ccc(N)cc1Cl [CHLOROPROCAINE] | System = Hepatotoxicity | HepSE_Combined Scores = ____
A) 0

Q) Form: Entry = FC(F)OC(F)(F)C(F)Cl (stereo not drawn) | System = Hepatotoxicity | HepSE_Combined Scores = ____
A) 2

Q) Form: Entry = Cc1cn[nH]c1 [FOMEPIZOLE] | System = Hepatotoxicity | HepSE_Combined Scores = ____
A) 0

Q) Form: Entry = N=C(N)NC(=O)c1nc(Cl)c(N)nc1N [AMILORIDE] | System = Hepatotoxicity | HepSE_Combined Scores = ____
A) 2

Q) Form: Entry = Cc1[nH]c(=O)c(C#N)cc1-c1ccncc1 [MILRINONE] | System = Hepatotoxicity | HepSE_Combined Scores = ____
A) 0

Q) Form: Entry = CN(C)c1ccc(O)c2c1C[C@H]1C[C@H]3[C@H](N(C)C)C(O)=C(C(N)=O)C(=O)[C@@]3(O)C(O)=C1C2=O [MINOCYCLINE] | System = Hepatotoxicity | HepSE_Combined Scores = ____
A) 4

Q) Form: Entry = COc1ccc2[nH]c([S+]([O-])Cc3ncc(C)c(OC)c3C)nc2c1 (stereo not drawn) [OMEPRAZOLE] | System = Hepatotoxicity | HepSE_Combined Scores = ____
A) 7

Q) Form: Entry = COc1ccnc(C[S+]([O-])c2nc3ccc(OC(F)F)cc3[nH]2)c1OC (stereo not drawn) [PANTOPRAZOLE] | System = Hepatotoxicity | HepSE_Combined Scores = ____
A) 7

Q) Form: Entry = CC(C)(S)[C@@H](N)C(=O)O [PENICILLAMINE] | System = Hepatotoxicity | HepSE_Combined Scores = ____
A) 1

Q) Form: Entry = CC(C)Cc1ccc(C(C)C(=O)O)cc1 (stereo not drawn) [IBUPROFEN] | System = Hepatotoxicity | HepSE_Combined Scores = ____
A) 5

Q) Form: Entry = Cc1cn([C@H]2C[C@H](O)[C@@H](CO)O2)c(=O)[nH]c1=O [DOXRIBTIMINE] | System = Hepatotoxicity | HepSE_Combined Scores = ____
A) 1

Q) Form: Entry = C[C@H]1c2cccc(O)c2C(=O)C2=C(O)[C@]3(O)C(=O)C(C(N)=O)=C(O)[C@@H](N(C)C)[C@@H]3[C@@H](O)[C@@H]21.O [DOXYCYCLINE] | System = Hepatotoxicity | HepSE_Combined Scores = ____
A) 0

Q) Form: Entry = CC(=O)OCC(=O)[C@@]12OC3(CCCC3)O[C@@H]1C[C@H]1[C@@H]3CCC4=CC(=O)C=C[C@]4(C)[C@@]3(F)[C@@H](O)C[C@@]12C [AMCINONIDE] | System = Hepatotoxicity | HepSE_Combined Scores = ____
A) 0

Q) Form: Entry = COc1c(N2CCNC(C)C2)c(F)cc2c(=O)c(C(=O)O)cn(C3CC3)c12 (stereo not drawn) [GATIFLOXACIN] | System = Hepatotoxicity | HepSE_Combined Scores = ____
A) 1

Q) Form: Entry = O=C1OC2(c3ccc(O)cc3Oc3cc(O)ccc32)c2ccccc21 [FLUORESCEIN] | System = Hepatotoxicity | HepSE_Combined Scores = ____
A) 0

Q) Form: Entry = Cc1ccc(S(=O)(=O)NC(=O)NN2CC3CCCC3C2)cc1 (stereo not drawn) [GLICLAZIDE] | System = Hepatotoxicity | HepSE_Combined Scores = ____
A) 4

Q) Form: Entry = CC(C(=O)O)c1cccc(Oc2ccccc2)c1 (stereo not drawn) [FENOPROFEN] | System = Hepatotoxicity | HepSE_Combined Scores = ____
A) 2

Q) Form: Entry = O=C(O)CCCCCCCC(=O)O [AZELAIC ACID] | System = Hepatotoxicity | HepSE_Combined Scores = ____
A) 0

Q) Form: Entry = CC(C)NCC(O)c1ccc(NS(C)(=O)=O)cc1 (stereo not drawn) [SOTALOL] | System = Hepatotoxicity | HepSE_Combined Scores = ____
A) 0

Q) Form: Entry = CNNCc1ccc(C(=O)NC(C)C)cc1 [PROCARBAZINE] | System = Hepatotoxicity | HepSE_Combined Scores = ____
A) 1

Q) Form: Entry = CCCN(CCC)CCc1cccc2c1CC(=O)N2 [ROPINIROLE] | System = Hepatotoxicity | HepSE_Combined Scores = ____
A) 4

Q) Form: Entry = Nc1nc2c(c(=O)[nH]1)N(C=O)C(CNc1ccc(C(=O)N[C@@H](CCC(=O)O)C(=O)O)cc1)CN2 (stereo partly drawn) [LEUCOVORIN] | System = Hepatotoxicity | HepSE_Combined Scores = ____
A) 0

Q) Form: Entry = CNC(=O)c1c(I)c(NC(C)=O)c(I)c(C(=O)[O-])c1I.[Na+] [IOTHALAMATE SODIUM] | System = Hepatotoxicity | HepSE_Combined Scores = ____
A) 0

Q) Form: Entry = CC(C)(C)NC[C@H](O)COc1nsnc1N1CCOCC1 [TIMOLOL] | System = Hepatotoxicity | HepSE_Combined Scores = ____
A) 1

Q) Form: Entry = Cc1ccc(C)c(OCCCC(C)(C)C(=O)O)c1 [GEMFIBROZIL] | System = Hepatotoxicity | HepSE_Combined Scores = ____
A) 4

Q) Form: Entry = CCCCCCCCCCCCCCCCCCCCCCO [DOCOSANOL] | System = Hepatotoxicity | HepSE_Combined Scores = ____
A) 0

Q) Form: Entry = NCCCCCC(=O)O [AMINOCAPROIC ACID] | System = Hepatotoxicity | HepSE_Combined Scores = ____
A) 0

Q) Form: Entry = II [IODINE] | System = Hepatotoxicity | HepSE_Combined Scores = ____
A) 1

Q) Form: Entry = CC(C)=CCN1CC[C@]2(C)c3cc(O)ccc3C[C@H]1[C@H]2C [(+)-PENTAZOCINE] | System = Hepatotoxicity | HepSE_Combined Scores = ____;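 further: combined hepatic side effect score as listed in the training data of the Drug Induced Liver Injury Prediction System (DILIps)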
A) 0
